Molecular target: autophosphorylated FLT3 kinase domain (FLT3KD) (Homo sapiens, UniProt P36888)
Construct: purified and autophosphorylated FLT3 kinase domain (FLT3KD); 6xHis (C); made in house; host or cells: baculovirus, SF9 / SF21 insect cells
Sequence (P36888 610-943 limits assumed): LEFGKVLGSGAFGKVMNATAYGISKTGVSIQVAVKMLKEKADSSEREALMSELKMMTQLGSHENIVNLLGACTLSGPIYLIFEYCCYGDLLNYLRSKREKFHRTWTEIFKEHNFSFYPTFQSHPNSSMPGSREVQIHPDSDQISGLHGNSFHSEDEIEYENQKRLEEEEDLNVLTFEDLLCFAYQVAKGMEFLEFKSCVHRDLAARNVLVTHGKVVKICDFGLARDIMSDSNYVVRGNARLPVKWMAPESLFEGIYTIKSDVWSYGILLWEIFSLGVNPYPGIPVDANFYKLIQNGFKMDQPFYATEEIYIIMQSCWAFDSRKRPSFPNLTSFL
Assay: FLT3 kinase assay (PK/LDH coupled, NADH loss at 340 nm)
Format: biochemical
Conditions: Table 6; 250 μM ATP
pIC50: −log10 of the molar value.
measured.endpoint: pIC50

Worked cases, answers included:
{"smiles.notation": "CC(C)(C)c1n[nH]c2nc(NC(=O)c3ccncc3)sc12", "measured.endpoint": "pIC50", "result": "< 6.00"}
{"smiles.notation": "O=C(Nc1nc2[nH]nc(-c3ccncc3)c2s1)c1ccccc1", "measured.endpoint": "pIC50", "result": "> 7.00"}
{"smiles.notation": "O=C(Nc1nc2[nH]nc(-c3ccco3)c2s1)c1ccccc1", "measured.endpoint": "pIC50", "result": "6.00 to 7.00"}
{"smiles.notation": "CC(C)(C)c1n[nH]c2nc(NC(=O)c3ccccc3)sc12", "measured.endpoint": "pIC50", "result": "6.00 to 7.00"}
{"smiles.notation": "O=C(Nc1nc2[nH]nc(-c3ccccn3)c2s1)c1ccco1", "measured.endpoint": "pIC50", "result": "6.00 to 7.00"}

Turning now to a further compound:
Qu. I am curious: what pIC50 value has been reported for O=C(Nc1nc2[nH]nc(-c3ccccc3)c2s1)c1ccno1 ?
Ans. > 7.00

====

biological target: Abl T315I kinase domain, unphosphorylated (Mus musculus, UniProt P00520, T315I); construct: Purified and unphosphorylated T315I Abl kinase domain (clone 5582d42PPt6p6); test: Abl T315I kinase assay (PK/LDH coupled, NADH loss at 340 nm); conditions: Table 8; 10 μM ATP; zero phosphorylation state
Sequence (P00520 242-493 T315I limits assumed): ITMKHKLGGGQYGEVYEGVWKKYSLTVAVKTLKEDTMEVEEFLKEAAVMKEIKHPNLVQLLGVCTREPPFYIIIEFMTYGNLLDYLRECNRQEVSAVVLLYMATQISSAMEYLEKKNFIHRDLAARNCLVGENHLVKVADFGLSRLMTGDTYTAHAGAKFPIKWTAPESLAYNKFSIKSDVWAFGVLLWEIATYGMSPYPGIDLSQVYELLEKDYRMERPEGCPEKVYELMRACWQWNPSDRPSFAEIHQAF
pIC50: −log10 of the molar value.
measured.endpoint: pIC50

Here is how some compounds turned out for pIC50.
{"compound": "O=C(Nc1nc2[nH]nc(-c3ccccc3Br)c2s1)C1CC1 [drawing 267]", "pIC50": "> 6.30"}
{"compound": "COCC(=O)Nc1nc2[nH]nc(-c3ccccc3)c2s1", "pIC50": "< 6.00"}
{"compound": "CC(=O)Nc1nc2[nH]nc(-c3ccccc3Cl)c2s1", "pIC50": "< 6.00"}

Next compound, pIC50 to be filled in.
Qu. Which pIC50 is listed for O=C(Nc1nc2[nH]nc(-c3ccccc3)c2s1)c1ccco1 [drawing 268] ?
Ans. > 6.30
